// provenance: the RNAGym collection of RNA variant scans (doi:10.7554/elife.90254)

Measured self-cleavage values are reported for all entries that follow.
B1: OR4K15 (parent)
chain: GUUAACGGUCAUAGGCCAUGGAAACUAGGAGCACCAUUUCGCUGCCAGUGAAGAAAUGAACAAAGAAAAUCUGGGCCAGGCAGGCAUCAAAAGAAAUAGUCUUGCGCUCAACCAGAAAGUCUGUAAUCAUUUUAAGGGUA

variants of: B1; assay: self-cleavage, relative activity (ratio to wild type); higher = more cleavage; in vitro, sequencing; the parent is a self-cleaving ribozyme

{"columns": ["mutation label", "self-cleavage"],
 "data": [
  ["A68U A91G", 1.35],
  ["A18G G75C", 0.16],
  ["A78U A117G", 0.36],
  ["A13U A82G", 0.84],
  ["A30U A55G", 1.55],
  ["A51U A54G", 1.36],
  ["U70C A114U", 0.02],
  ["A90G A94U", 1.93],
  ["A116G A140C", 0.63],
  ["G28U A60G", 1.57],
  ["U131C U132C", 1.1]
]}
